# Maximum MFI per record follows
# target desc: T1, human B7-H7 on the cell surface (human, UniProt Q9UM44 23-414)
# T1 construct: whole, on cells; also called hB7-H7; hu B7-H7
# T1 sequence (looked up): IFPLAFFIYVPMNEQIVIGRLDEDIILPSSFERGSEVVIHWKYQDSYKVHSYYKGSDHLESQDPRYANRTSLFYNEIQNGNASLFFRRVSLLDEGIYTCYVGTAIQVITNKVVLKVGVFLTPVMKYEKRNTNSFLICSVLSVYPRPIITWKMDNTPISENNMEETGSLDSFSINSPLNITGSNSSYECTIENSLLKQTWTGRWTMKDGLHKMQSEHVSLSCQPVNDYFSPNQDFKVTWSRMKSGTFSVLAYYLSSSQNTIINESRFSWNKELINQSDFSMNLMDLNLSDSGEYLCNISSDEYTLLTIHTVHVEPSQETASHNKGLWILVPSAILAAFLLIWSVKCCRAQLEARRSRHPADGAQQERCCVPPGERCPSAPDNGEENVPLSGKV
# assay protocol: flow cytometry, HEK-293/hu B7-H7 cells
The response must be a number in MFI with no trailing unit.

>>> measured_value("PR003262 (antibody, human IgG1, kappa, V domains shown, Human IgG1; also called 77D5A4) VH: QVQLVESGGGVVQPGRSLRLSCAASGFTFSRYGIHWVRQAPGKGLEWVAVIWYNGRNKYYVDSVKGRFTISRDNSKNTLYLQMNSLRAEDTAVYYCARDGGYSYGPFDYWGQGTLVTVSS VL: EIVMTQSPATLSVSPGERATLSCRASQSFSNNLAWYQQKPGQAPRLLIYGASTRATGIPARFSGSGSGTEFTLTISSLQSEDFAVYYCHQYNIWPLTFGGGTKVEIKR")
822000

Please look up its Maximum MFI: PR003260 (antibody, human IgG1, kappa, V domains shown, Human IgG1; also called 70F3B1) VH: QVQLVESGGGVVQPGRSLRLPCAASGFTFSRYGMHWVRQAPGKGLEWVADIWYDGSKKYYADSVKGRFTISRDNSKNTLYLQMNSLRAEDTAVYFCTRDGGYSYGPFDYWGQGTLVTVSS VL: EIVMTQSPATLSVSPGERATLSCRASQSVSSNLAWYQQKPGQAPRLLIYYASTRAPGIPARFSGSESGTEFTLTISSLQSEDFAVYYCQQYNIWPYTFGQGTKLEIKR
807000

Same read-out for PR003263 (antibody, human IgG1, kappa, V domains shown, Human IgG1; also called 77E6C4) VH: QVQLVESGGGVVQPGRSLRLSCAASGFTFSYYGLNWVRQAPGKGLEWVAVIWFDGTNKYYADSVKGRFTISRDDSKNTLYLQMNSLRAEDTAVYYCARGYGSGSYYNYVMDAWGQGASVTVSS VL: EIVMTQSPATLSVSPGERATLSCRASQSVSSNLAWYQQKPGQAPRLLIYGASTGATGIPARFSGSGSGTDFTLTISSLQSEDFAVYYCQQYYKWPLTFGGGTKVEIKR ?
763000

Same thing, different binder: PR003265 (antibody, human IgG1, kappa, V domains shown, Human IgG1; also called 78G8B3) VH: QVQLVESGGGVVQPGRSLRLSCAASGFTFSTYGLHWVRQAPGKGLEWVAVIWYDESNEYYADSVKGRFTISRDNSKNTLYLQMNSLRAEDTALYYCARLAHDYGGTYFDYWGQGTLVTVSS VL: EIVMTQSPAILSVSPGERATLSCRASQSISYNLAWYQQKPGQAPRLLIYGASIRATGIPARFSGSGSGTDFTLTISSLQSEDFAVYYCQQYNNWPPWTFGQGTKVEIKR
824000

Entry to check: PR003252 (antibody, human IgG1, kappa, V domains shown, Human IgG1; also called 53C12D4) VH: QVQLVESGGGVVQPGRSLRLSCAASGFTFSNYAMHWVRQVPGKGLEWVALIWYDGSEKYYADSVKGRFTISRDDSKNTLFLQMSSLRAEDTAVYSCVREYSSGWGYFDYWGQGTQVTVSS VL: DIQMTQSPSTLSASVGDRVTITCRASQSISSWLAWYQQKPGKAPKLLIYKASSLKSGVPSRFSGSGSGTEFTLTISSLQPDDFATYYCLQYNSYYTFGQGTKLEIKR
837000

Origin of values: patent US20250136696A1
